# credit: patent US20100298141A1

Tested on: yellow nutsedge
measurement.description: Test C pre-/postemergence test
Type: in vivo, Cyperus esculentus
condition.details: preemergence, 250 g ai/ha; scale 0 (no effect) to 100 (complete control)
Listing: Nutsedge, Yellow plant response rating of selected compounds
parameter.measured: Nutsedge, Yellow plant response rating

>  <compound>
Cc1cc[n+]([O-])c(S(=O)(=O)Cc2c(C(F)(F)C(F)(F)F)nn(C)c2OCC(F)(F)F)c1

>  <value>
80

$$$$
>  <compound>
Cn1nc(OC(F)F)c(CS(=O)(=O)c2cccc[n+]2[O-])c1C(F)(F)F

>  <value>
95

$$$$
>  <compound>
CC(C)c1cc[n+]([O-])c([S+]([O-])Cc2c(C(F)(F)F)nn(C)c2OC(F)F)c1 (stereo not shown)

>  <value>
100

$$$$
>  <compound>
Cn1nc(C(F)(F)F)c(C[S+]([O-])c2cccc[n+]2[O-])c1OCC(F)F (stereo not shown)

>  <value>
100

$$$$

---

The reader will find reported Plant response rating, Sedge, Umbrella values listed item by item below.
Test system: umbrella sedge
measurement.description: Test C flooded paddy test
Assay type: in vivo, Cyperus difformis
condition.details: Flood, 250 g ai/ha; scale 0 to 100, 0 no effect, 100 complete control; 13 to 15 days

>  <compound>
Cn1nc(C(F)(F)F)c(CS(=O)(=O)c2cccc[n+]2[O-])c1OCC(F)(F)C(F)(F)F [Compound 83]

>  <target.or.system>
umbrella sedge

>  <Plant response rating, Sedge, Umbrella>
0

$$$$
>  <compound>
Cn1nc(C(F)(F)F)c(C[S+]([O-])c2ccc(Cl)c[n+]2[O-])c1OCC(F)(F)C(F)(F)F (stereo not shown) [Compound 89]

>  <target.or.system>
umbrella sedge

>  <Plant response rating, Sedge, Umbrella>
100

$$$$
>  <compound>
CC(c1c(C(F)(F)F)nn(C)c1Cl)S(=O)(=O)c1ccc(Cl)c[n+]1[O-] (racemic) [Compound 40]

>  <target.or.system>
umbrella sedge

>  <Plant response rating, Sedge, Umbrella>
85

$$$$
>  <compound>
Cn1nc(C(F)(F)C(F)(F)F)c(CS(=O)(=O)c2cccc[n+]2[O-])c1OCC(F)(F)F [Compound 84]

>  <target.or.system>
umbrella sedge

>  <Plant response rating, Sedge, Umbrella>
100

$$$$

---

Recorded measurements of Plant response rating, Foxtail, Giant, one per entry
Test system: giant foxtail
measurement.description: Test A pre-/postemergence greenhouse test
Format: in vivo, Setaria faberi
condition.details: Postemergence, 125 g ai/ha; 0 to 100 scale where 0 is no effect and 100 is complete control
parameter.measured: Plant response rating, Foxtail, Giant

>  <molecule>
CC(C)c1cc[n+]([O-])c([S+]([O-])Cc2c(C(F)(F)F)nn(C)c2OC(F)F)c1 (stereo not drawn) [Compound 109]

>  <target.or.system>
giant foxtail

>  <parameter.measured>
Plant response rating, Foxtail, Giant

>  <value>
80

$$$$
>  <molecule>
CC(Oc1c(C[S+]([O-])c2cccc[n+]2[O-])c(C(F)(F)F)nn1C)C(F)(F)F (stereo not drawn) [Compound 77]

>  <target.or.system>
giant foxtail

>  <parameter.measured>
Plant response rating, Foxtail, Giant

>  <value>
80

$$$$
>  <molecule>
CCc1cc[n+]([O-])c(S(=O)(=O)Cc2c(C(F)(F)F)nn(C)c2OC(F)F)c1 [Compound 102]

>  <target.or.system>
giant foxtail

>  <parameter.measured>
Plant response rating, Foxtail, Giant

>  <value>
80

$$$$
